Several publications report Ki on Sodium-dependent serotonin transporter (Homo sapiens, UniProt P31645); those values are gathered here.

| compound | Ki |
| --- | --- |
| COc1ccc(C2CN(C)Cc3cc(OCCCN4CCC(C#N)CC4)ccc32)cc1 (configuration not stated) | 5.3 nM |
| CC(C)CN(CCCc1c[nH]c2ccc(F)cc12)C1COc2ccc3c(c2C1)C(=O)NC3 (racemic) | 617 nM |
| O=C1NCc2ccc3c(c21)CC(N(CCCc1c[nH]c2ccc(F)cc12)C(=O)c1ccccc1)CO3 (racemic) | 31 nM |
| C[C@H]1CN(c2cccc3cc(F)ccc23)CCN1CC[C@H]1OCc2cc(C(N)=O)ccc21 | 8.8 nM |
| COc1ccc(C2CN(C)Cc3cc(OCCCN4CCN(c5nccs5)CC4)ccc32)cc1 (configuration not stated) | 5.3 nM |
| O=C1CCc2ccc(OCCN3CCN(c4cccc5[nH]c(=O)oc45)CC3)cc2N1 | 538 nM |
| O=c1ccc(-n2ccc3ccccc32)nn1CCCCN1CCN(c2ncccn2)CC1 | > 10000 nM |
| O=C1Cc2c(ccc3c2OC[C@H](CNCC2CCc4c([nH]c5ccc(F)cc45)C2)O3)N1 (some centres not stated) | 25 nM |
| COc1ccccc1S[C@@H](c1ccccc1)[C@@H]1CNCCO1 | 9.69 nM |
| COc1cc(F)ccc1O[C@H](c1ccccc1)[C@H]1CNCCO1 | 22 nM |
| COc1cc2c(cc1OC)C1=NO[C@@H](CN3CCN(C/C=C(\C)c4ccccc4OC)CC3)[C@@H]1CO2 | 51 nM |
| CNCCC(Oc1cccc2ccccc12)c1ccc(F)cc1 (configuration not stated) | 0.95 nM |
| Cc1ccc(Sc2ccccc2CNCCCF)c(N)c1 | 518 nM |
| Fc1ccccc1Oc1cccc(F)c1C1CCNCC1 | 1260 nM |
| COc1ccc2[nH]cc(C3CC(=O)N(CCN4CCC(c5c[nH]c6ccc(F)cc56)CC4)C3=O)c2c1 (configuration not stated) | 221 nM |
| c1ccc(Oc2ccccc2OC2CNC2)cc1 | 2670 nM |
| FC(F)(F)OCCN(Cc1ccccc1C(F)(F)F)C1CCNCC1 | 17 nM |
| Fc1ccc(CN(CC2CCC2)C2CCNCC2)c(C(F)(F)F)c1 | 2.5 nM |
| O=C1NCc2ccc3c(c21)CC(N(CCCCc1c[nH]c2ccc(F)cc12)CC1CC1)CO3 (racemic) | 139 nM |
| COc1cc(C(F)(F)F)ccc1O[C@@H](c1ccccc1)[C@@H]1CNCCO1 | 41 nM |
| Cc1ccc2c(N3CCN(CCc4cc5c(cc4F)OCC(=O)N5)CC3)cccc2n1 | 0.794 nM |
| CCCCN(Cc1ccccc1C(F)(F)F)C1CCNCC1 | 1.5 nM |
| c1ccc(OCc2cc(OCCNC3CCC3)no2)cc1 | > 7000 nM |
| O=C(CCc1ccccc1)NCCNCCOC(c1ccc(F)cc1)c1ccc(F)cc1 | 523 nM |
| COCCOc1cc(CC2CCN(CCc3ccc4c(c3)CCCO4)CC2)ccc1Br | 1.74 nM |
| CN(C)Cc1ccccc1Sc1ccc(CCCF)cc1N | 8.55 nM |
| COc1ccc(-c2ccc(C(=O)N3CCN(C(=O)c4ccc5cc[nH]c5c4)[C@@H](C)C3)cc2)cc1 | > 10000 nM |
| COc1ccc2[nH]cc(C3CC(=O)N(CCCCN4CCC(c5c[nH]c6ccccc56)CC4)C3=O)c2c1 (configuration not stated) | 705 nM |
| CNCc1cc(Br)ccc1Oc1ccc(SC)cc1 | 1.7 nM |
| C[C@H]1CC[C@H](C)N1CCCOc1ccc(-c2ccc(C(=O)N3CCOCC3)cc2)cc1 | 3550 nM |
| c1ccc(C2CNCc3cc(OCCCN4CCOCC4)ncc32)cc1 (configuration not stated) | 4770 nM |
| COc1cc(Cl)ccc1O[C@@H](c1ccccc1F)[C@@H]1CNCCO1 | 70 nM |
| CN(CCCc1ccccc1)CCCN(C)CCOC(c1ccccc1)c1ccccc1 | 438 nM |
| Fc1ccc(C(OCCNCCCNCCc2ccccc2)c2ccc(F)cc2)cc1 | 125 nM |
| CS(=O)(=O)Nc1cc(OCCN2CCC(Oc3ccc4c(c3)NC(=O)CC4)CC2)ccc1F | 30 nM |
| COc1ccc(C2CN(C)Cc3cc(OCCCN4CCN(c5ccccc5O)CC4)ccc32)cc1 (configuration not stated) | 7.2 nM |
| CN1Cc2cc(OCCCN3CCC(F)CC3)ccc2C(c2cccc(C(F)(F)F)c2)C1 (configuration not stated) | 15 nM |
| CN(C)Cc1ccccc1Sc1ccccc1N | 1.59 nM |
| C[C@H]1CN(C(=O)c2ccc(-c3ccccc3C(F)(F)F)cc2)CCN1C(=O)c1ccc2cc[nH]c2c1 | > 10000 nM |
| Cc1ccc2c(N3CCN(CCc4ccc5c(c4)NC(=O)CO5)CC3)ccc(F)c2n1 | 3.98 nM |
| COCCOc1cc(CC2CCN(CCc3ccc4c(c3)OCCC4)CC2)ccc1Br | 5.4 nM |
| FCCc1ccccc1O[C@@H](c1ccccc1)[C@@H]1CNCCO1 | 430 nM |
